Value source: paper PMC4832822

test: milogP calculated using Molinspiration Cheminformatics; conditions: Table SI14
Below: a set of entries, each annotated with reported ΔlogP (milogP vs logP exp).

For orientation, consider the following solved cases.
| compound | endpoint_result |
| --- | --- |
| OCC(F)(F)F [compound 3, 2,2,2-Trifluoroethanol] | +0.25 |
| O=C[C@H](O)[C@@H](F)[C@@H](O)[C@H](O)CO [compound 46, 3-Fluoro-3-deoxy-D-galactose] | +0.32 |
| CC(O)CC(F)F (centres unmarked) [compound 17] | +0.46 |
| CC(C)(O)C(F)(F)F [compound 14] | +0.39 |
| CC(C)(C)[C@H]1CC[C@@H](O)[C@H](F)C1 (relative stereo) [compound 44] | -0.51 |

Return reported ΔlogP (milogP vs logP exp). Input compound: C[C@H](O)C[C@H](C)F [compound 27]
+0.40

Supply recorded ΔlogP (milogP vs logP exp) for Oc1ccccc1F [SI4, o-fluorophenol] here.
+0.13

Using known records, supply ΔlogP (milogP vs logP exp) for O=C[C@H](F)[C@@H](O)[C@@H](O)[C@H](O)CO [compound 47, 2-Fluoro-2-deoxy-D-galactose]
+0.44

Give the value of ΔlogP (milogP vs logP exp) reported for the following: O=C[C@H](O)[C@@H](O)[C@H](O)[C@H](O)CF [compound 48, 6-Fluoro-6-deoxy-D-glucose]
+0.65

Consider the compound CC(C)(C)[C@H]1CC[C@H](O)[C@H](F)C1 (relative stereo) [compound 42] . State its measured ΔlogP (milogP vs logP exp).
+0.07

Query ΔlogP (milogP vs logP exp) for OCCC(F)(F)F [compound 12]
+0.47

###

experiment: physchem; details: Average logP
quantity_kind: logP
The response must contain the number and no unit.

| molecule | endpoint_result |
| --- | --- |
| OCCCC(F)(F)C(F)(F)F | 1.72 |
| CC(O)C(F)(F)C(F)(F)F (stereo not drawn) | 1.53 |

Determine from records and report logP for CC(O)C(F)(F)C(F)F (stereo not drawn)
1.05
